Values compiled from patent US8304238B2.

biological target: syndecan present on the cell surface of T2 cells (alveolar type II epithelial cells); assay: T2 cell adhesion to FIB-1 and the peptide co-immobilized on MMAC-coated wells, inhibition by free FIB-1 (FIG. 9)
observable: mixing ratio at the transitional midpoint (peptide to FIB-1)

[[record]]
binder = "LVLFLNHGHFVA [A5G77 (Leu-Val-Leu-Phe-Leu-Asn-His-Gly-His-Phe-Val-Ala)]"
recorded_result = 1

[[record]]
binder = "TLFLAHGRLVFM [A4G82 (Thr-Leu-Phe-Leu-Ala-His-Gly-Arg-Leu-Val-Phe-Met)]"
recorded_result = 0.1

[[record]]
binder = "KNSFMALYLSKG [hA3G75 (Lys-Asn-Ser-Phe-Met-Ala-Leu-Tyr-Leu-Ser-Lys-Gly)]"
recorded_result = 1

[[record]]
binder = "KPRLQFSLDIQT [A3G72 (Lys-Pro-Arg-Leu-Gln-Phe-Ser-Leu-Asp-Ile-Gln-Thr)]"
recorded_result = 0.1

[[record]]
binder = "GNSTISIRAPVY [hA3G83 (Gly-Asn-Ser-Thr-Ile-Ser-Ile-Arg-Ala-Pro-Val-Tyr)]"
recorded_result = 1

